METHOD_DESCRIPTION: Toxicity liver stage against HepG2, at 10uM
Type: cell-based
Set-up: test concentration 10 uM, cell line HepG2-A16-CD81EGFP
CONDITIONS: human, HepG2-A16-CD81EGFP cells; read-out: INHIBITION
MEASUREMENT_NAME: cytotoxicity at 10 µM (%)
Respond with the bare value in %.

These recorded examples may help you get a feel for the data.
- COMPOUND: "CCc1csc(C2CCCN(C(=O)c3ccc(OC)nn3)C2)n1 (stereo not given)"
  cytotoxicity at 10 µM (%): -8.8
- COMPOUND: "CC(C)(C)N1CC(C(=O)N2CC(Oc3ccc(F)cc3)C2)CC1=O (stereo not given)"
  cytotoxicity at 10 µM (%): 1.88
- COMPOUND: "CNc1ncc(CN(C)C(=O)CCc2[nH]nc3c2CCCC3)cn1"
  cytotoxicity at 10 µM (%): 3.8
- COMPOUND: "CCC1=N[C@@]2(CC[C@@H]3CN(C(=O)NC(C)C)C[C@@H]32)C(=O)N1C"
  cytotoxicity at 10 µM (%): -18
- COMPOUND: "O=C(c1cc(C2CCCCN2C(=O)C2CCC2)n[nH]1)N1CCOCC1 (stereo not given)"
  cytotoxicity at 10 µM (%): -14
- COMPOUND: "N#Cc1ccccc1C(=O)N1C[C@@H](CN2CCCCC2)[C@@H](CO)C1"
  cytotoxicity at 10 µM (%): -0.165
- COMPOUND: "Cc1cc(C(=O)N2CC[C@@]3(O)CCN(C(=O)N4CCCC4)C[C@H]3C2)no1"
  cytotoxicity at 10 µM (%): -6.74
- COMPOUND: "O=C(c1ccco1)N1CCC2(CCC(=O)N2Cc2ccccc2)CC1"
  cytotoxicity at 10 µM (%): 7.59
- COMPOUND: "Cc1cn2c(CN(C)C(=O)c3nccnc3N)c(C)nc2s1"
  cytotoxicity at 10 µM (%): -4.12

API: the following record is the query input.
Task: Recorded cytotoxicity at 10 µM of CC(C)(C)n1cc(C2=CCN(CCN3CCCCCC3)CC2)cn1 , please.
Result: -0.481

###

METHOD_DESCRIPTION: Toxicity liver stage against HepG2, at 10uM
Assay type: cell-based
Parameters: test concentration 10 uM, cell line HepG2-A16-CD81EGFP
CONDITIONS: human, HepG2-A16-CD81EGFP cells; read-out: INHIBITION
Below is a list of entries, each paired with its recorded cytotoxicity at 10 µM value.
Respond with the bare value in %.

These recorded examples may help you get a feel for the data.
- COMPOUND: "OC(CN1CCC(c2ccn[nH]2)CC1)c1ccc(F)cc1 (stereo unspecified)"
  cytotoxicity at 10 µM [%]: -28.9
- COMPOUND: "CC(C)CN1CCC2(Cc3ccccc3NC2=O)C1 (stereo unspecified)"
  cytotoxicity at 10 µM [%]: 6.86
- COMPOUND: "CC(=O)NCC1CCN(Cc2nc(C3CC3)no2)CC1"
  cytotoxicity at 10 µM [%]: -4.12
- COMPOUND: "CC(=O)Nc1ccc(CNC(C)c2c(C)nn(C)c2C)cc1 (stereo unspecified)"
  cytotoxicity at 10 µM [%]: 13
- COMPOUND: "Cc1noc(C)c1CN1C[C@@H]2COC[C@H](C(=O)N3CCCCO3)[C@@H]2C1"
  cytotoxicity at 10 µM [%]: -1.98

Task: Recorded cytotoxicity at 10 µM of CC(=O)Nc1c(C)noc1C=Cc1ccc(C)c(S(=O)(=O)NC2CC2)c1 , please.
Result: 0.905

###

METHOD_DESCRIPTION: Toxicity liver stage against HepG2, at 10uM
Type: cell-based
Parameters: test concentration 10 uM, cell line HepG2-A16-CD81EGFP
CONDITIONS: human, HepG2-A16-CD81EGFP cells; read-out: INHIBITION
MEASUREMENT_NAME: cytotoxicity at 10 µM (%)
Respond with the bare value in %.

These recorded examples may help you get a feel for the data.
- COMPOUND: "CC(C)c1ncc(CN2CCC(c3n[nH]cc3C(=O)N(C)C)C2)cn1 (configuration not stated)"
  U: "%"
  RECORDED_MEASUREMENT: 2.27
- COMPOUND: "Cc1nc(C)n(CC2CCCN2CCc2ccncc2)n1 (configuration not stated)"
  U: "%"
  RECORDED_MEASUREMENT: -7.3
- COMPOUND: "Cc1cccnc1CC(C)Nc1nc(N)nc2c1CCNC2 (configuration not stated)"
  U: "%"
  RECORDED_MEASUREMENT: 2.09
- COMPOUND: "CSCc1cccc(S(=O)(=O)NCCCO)c1"
  U: "%"
  RECORDED_MEASUREMENT: -7.5
- COMPOUND: "CCc1cc(=O)n(CC(=O)N2CCCC2)c(-c2ccc(F)cc2)n1"
  U: "%"
  RECORDED_MEASUREMENT: 8.66

Task: Recorded cytotoxicity at 10 µM of CCc1nnc2n1CCN(Cc1csc(-c3ccc(C)o3)n1)C2 , please.
Result: -1.5

Task: Recorded cytotoxicity at 10 µM of CNS(=O)(=O)Cc1cccc(CNC(=O)Nc2cn[nH]c2)c1 , please.
Result: -11.2

###

METHOD_DESCRIPTION: Toxicity liver stage against HepG2, at 10uM
Type: cell-based
Set-up: test concentration 10 uM, cell line HepG2-A16-CD81EGFP
CONDITIONS: human, HepG2-A16-CD81EGFP cells; read-out: INHIBITION
Below is a list of entries, each paired with its recorded cytotoxicity at 10 µM value.
Respond with the bare value in %.

These recorded examples may help you get a feel for the data.
- COMPOUND: "CCNc1ncc(C(=O)Nc2nnc(N3CCCCC3)[nH]2)s1"
  U: "%"
  cytotoxicity at 10 µM: -12.4
- COMPOUND: "Cc1cc(CN2C[C@@H]3CN(C(=O)c4cccn4C)CCO[C@@H]3C2)no1"
  U: "%"
  cytotoxicity at 10 µM: -148

Task: Recorded cytotoxicity at 10 µM of COc1ccc(C(C)Nc2nc3c(C)nn(C)c3c(=O)n2C)cc1 (centres undefined) , please.
Result: 1.89

Task: Recorded cytotoxicity at 10 µM of CN(CCNC(=O)N1CCN(Cc2ccon2)CC1)C1CCCC1 , please.
Result: 15.6

Task: Recorded cytotoxicity at 10 µM of Cc1noc([C@]23COC[C@H]2CN(S(C)(=O)=O)C3)n1 , please.
Result: 10.4

###

METHOD_DESCRIPTION: Toxicity liver stage against HepG2, at 10uM
Format: cell-based
Set-up: test concentration 10 uM, cell line HepG2-A16-CD81EGFP
CONDITIONS: human, HepG2-A16-CD81EGFP cells; read-out: INHIBITION
MEASUREMENT_NAME: cytotoxicity at 10 µM (%)
Respond with the bare value in %.

These recorded examples may help you get a feel for the data.
- MOLECULE: "Cc1ccc2nc(CN3CCC(O)(Cn4ccnc4)CC3)cc(O)c2c1"
  U: "%"
  cytotoxicity at 10 µM: -47.8
- MOLECULE: "CCOc1ncccc1CNC(=O)c1csc(Br)c1"
  U: "%"
  cytotoxicity at 10 µM: 0.291

Task: Recorded cytotoxicity at 10 µM of Cn1c(=O)oc2cc(Nc3nccnc3C#N)ccc21 , please.
Result: 2.14

Task: Recorded cytotoxicity at 10 µM of CCS(=O)(=O)CC(=O)NC(C)c1ccc(F)cc1F (configuration not stated) , please.
Result: 1.73

Task: Recorded cytotoxicity at 10 µM of O=C(Cc1n[nH]c(-c2cncc(Br)c2)n1)NCc1ccncc1 , please.
Result: -6.3

Task: Recorded cytotoxicity at 10 µM of O=C(CCCc1ccccn1)NCC(O)c1ccccc1Cl (configuration not stated) , please.
Result: -9.08

Task: Recorded cytotoxicity at 10 µM of CN(C)Cc1nc(-n2cnc(C(=O)NC3CCCC3)c2)n2ccccc12 , please.
Result: 7.75

Task: Recorded cytotoxicity at 10 µM of CCN(C)S(=O)(=O)NCC1(c2ccccc2Br)CC1 , please.
Result: 1.22

Task: Recorded cytotoxicity at 10 µM of COc1cc(C)ccc1C(=O)N1CCC2(CCC(=O)N(C(C)C)C2)CC1 , please.
Result: 3.76

Task: Recorded cytotoxicity at 10 µM of CN(C)C(c1ccccn1)C1CCC(CNC(=O)C2CC2)CC1 (configuration not stated) , please.
Result: 6.6

Task: Recorded cytotoxicity at 10 µM of Cc1nn(Cn2ccc(C(=O)N3CCC(C)CC3)n2)c(C)c1Cl , please.
Result: -2.36

Task: Recorded cytotoxicity at 10 µM of O=C(NCCc1ccccn1)[C@@]12CCO[C@@H]1CCN(c1ncccn1)C2 , please.
Result: 4.26

###

METHOD_DESCRIPTION: Toxicity liver stage against HepG2, at 10uM
Assay type: cell-based
Design: test concentration 10 uM, cell line HepG2-A16-CD81EGFP
CONDITIONS: human, HepG2-A16-CD81EGFP cells; read-out: INHIBITION
MEASUREMENT_NAME: cytotoxicity at 10 µM (%)
Respond with the bare value in %.

These recorded examples may help you get a feel for the data.
- COMPOUND: "COCCNC(=O)c1cc(C2CC2)nc2onc(C3CCNC3)c12 (configuration not stated)"
  RECORDED_MEASUREMENT: 7.55
- COMPOUND: "O=C1NCC2(CCCN(C(=O)Cn3nc4ccccc4n3)CC2)O1 (configuration not stated)"
  RECORDED_MEASUREMENT: -3.45
- COMPOUND: "CC(C)(C)C(=O)NCCC(=O)NCCc1ccn(-c2ccccc2)n1"
  RECORDED_MEASUREMENT: -8.89
- COMPOUND: "CC(C)CCn1cc(C(C(=O)O)N2CCSCC2)cn1 (configuration not stated)"
  RECORDED_MEASUREMENT: -1.17

Task: Recorded cytotoxicity at 10 µM of CCn1nc(C)c2nc(C(C)C)nc(NCCOC)c21 , please.
Result: 6.3

Task: Recorded cytotoxicity at 10 µM of O=C(Cc1ccc2c(c1)CCO2)Nc1cccnc1-n1cncn1 , please.
Result: 3.94

Task: Recorded cytotoxicity at 10 µM of c1ccc(-n2ccc(CN3CCOC(Cn4cncn4)C3)n2)cc1 (configuration not stated) , please.
Result: 0.561

Task: Recorded cytotoxicity at 10 µM of CCS(=O)(=O)c1ncc(CN(C)Cc2ccccc2Cl)n1CCOC , please.
Result: 3.58
